target: CB2 receptor (Homo sapiens, UniProt P34972); test: [3H]CP-55,940 radioligand competition binding, CB2; design: host or cells: cell membrane preparations; conditions: Ki(CB1)/Ki(CB2) ratio
Sequence (P34972 whole entry): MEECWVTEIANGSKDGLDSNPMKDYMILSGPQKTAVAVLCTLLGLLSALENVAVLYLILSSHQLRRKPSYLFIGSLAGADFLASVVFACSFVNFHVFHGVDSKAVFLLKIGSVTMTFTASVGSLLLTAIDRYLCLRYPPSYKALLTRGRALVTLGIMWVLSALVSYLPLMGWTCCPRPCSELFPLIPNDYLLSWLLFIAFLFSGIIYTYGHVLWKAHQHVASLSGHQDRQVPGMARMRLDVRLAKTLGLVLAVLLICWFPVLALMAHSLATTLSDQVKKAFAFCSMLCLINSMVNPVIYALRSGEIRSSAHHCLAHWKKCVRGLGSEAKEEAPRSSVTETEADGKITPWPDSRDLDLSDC
Here, each record is paired with measured SI: selectivity index for CB2 data.

Reference set (3 entries):
1. CCN(CC)c1ccc(CN(C(=O)Cc2ccccc2)C23CC4CC(CC(C4)C2)C3)cc1 : >333
2. O=C(Cc1ccc(Cl)cc1)NC(NC(=O)Cc1ccc(Cl)cc1)c1ccccc1C(F)(F)F : >127
3. CCN(CC)c1ccc(CN(C(=O)C2CCCCC2)c2ccc(Cl)cc2)cc1 : 121

May I ask what SI: selectivity index for CB2 has been recorded for O=C(Cc1ccc(Cl)cc1)NC(NC(=O)Cc1ccc(Cl)cc1)c1ccc(Cl)cc1 ?
>130

* * *

target: CB1 receptor (Homo sapiens, UniProt P21554); construct: host or cells: cell membrane preparations; experiment: [3H]CP-55,940 radioligand competition binding, CB1; details: [3H]CP-55,940 displacement; read-out: Ki (CB1)
Sequence (P21554 whole entry): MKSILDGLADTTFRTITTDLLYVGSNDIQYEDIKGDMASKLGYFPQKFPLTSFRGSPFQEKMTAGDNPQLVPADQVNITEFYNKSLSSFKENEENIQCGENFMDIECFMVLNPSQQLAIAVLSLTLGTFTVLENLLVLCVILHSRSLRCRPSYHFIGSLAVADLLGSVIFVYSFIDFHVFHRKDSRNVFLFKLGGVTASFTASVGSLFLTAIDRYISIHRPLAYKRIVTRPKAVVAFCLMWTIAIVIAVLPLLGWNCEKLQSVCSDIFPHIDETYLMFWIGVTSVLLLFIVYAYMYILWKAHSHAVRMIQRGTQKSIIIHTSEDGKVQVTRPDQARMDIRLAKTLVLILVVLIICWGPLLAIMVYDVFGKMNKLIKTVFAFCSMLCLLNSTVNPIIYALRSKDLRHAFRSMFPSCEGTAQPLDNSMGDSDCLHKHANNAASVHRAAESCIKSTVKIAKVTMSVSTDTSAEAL
Here, each record is paired with measured Ki data.

Reference set (2 entries):
1. CCN(CC)c1ccc(CN(C(=O)C2CCCCC2)C23CC4CC(CC(C4)C2)C3)cc1 [Compound 63] : > 20 µM
2. CCN(CC)c1ccc(CN(C23CC4CC(CC(C4)C2)C3)S(=O)(=O)c2ccc(C)cc2)cc1 [Compound 60] : > 20 µM

May I ask what Ki has been recorded for CCN(CC)c1ccc(CN(C(=O)Cc2ccc(Cl)cc2)C23CC4CC(CC(C4)C2)C3)cc1 [Compound 65] ?
> 20 µM

May I ask what Ki has been recorded for CCN(CC)c1ccc(CN(c2ccc(C)cc2)S(=O)(=O)c2ccc(OC)cc2)cc1 [Compound 93] ?
1.3 µM

* * *

Here, each record is paired with measured SI: selectivity index for CB2 data.
target: CB2 receptor (Homo sapiens, UniProt P34972); experiment: [3H]CP-55,940 radioligand competition binding, CB2; set-up: host or cells: cell membrane preparations; settings: Ki(CB1)/Ki(CB2) ratio

Reference set (10 entries):
1. CCN(CC)c1ccc(CN(C(=O)C2CCCCC2)c2ccc(C)cc2)cc1 : 0.9
2. CCCCCC(=O)NC(NC(=O)CCCCC)c1ccc(N(CC)CC)cc1 : >800
3. CCN(CC)c1ccc(CN(C(=O)C2CCCCC2)C23CC4CC(CC(C4)C2)C3)cc1 : >571
4. CCCCCCCC(=O)NC(NC(=O)CCCCCCC)c1ccc(N(CC)CC)cc1 : >136
5. CCCCN(CCCC)c1ccc(C(NC(=O)Cc2ccccc2)NC(=O)Cc2ccccc2)cc1 : >90
6. CCN(CC)c1ccc(CN(c2ccc(Cl)cc2)S(=O)(=O)c2ccc(OC)cc2)cc1 : >1,428
7. O=C(Cc1ccccc1)NC(NC(=O)Cc1ccccc1)c1ccc(N2CCCCC2)cc1 : >34
8. CN(C)c1ccc(C(NC(=O)Cc2ccccc2)NC(=O)Cc2ccccc2)cc1 : >26
9. CCN(CC)c1ccc(CN(C(=O)Cc2ccc(Cl)cc2)c2ccc(Cl)cc2)cc1 : 147
10. CCCCC(=O)NC(NC(=O)CCCC)c1ccc(N(CC)CC)cc1 : >109

May I ask what SI: selectivity index for CB2 has been recorded for CCN(CC)c1ccc(CN(c2ccc(C)cc2)S(=O)(=O)c2cccc(C)c2)cc1 ?
37

May I ask what SI: selectivity index for CB2 has been recorded for CCN(CC)c1ccc(CN(c2ccc(Cl)cc2)S(=O)(=O)c2ccc(F)cc2)cc1 ?
15

May I ask what SI: selectivity index for CB2 has been recorded for CCN(CC)c1ccc(CN(c2ccc(C)cc2)S(=O)(=O)c2ccc(OC)cc2)cc1 ?
2594
